test: NCI Yeast Anticancer Drug Screen. Data for the bub3 strain (AID 167); settings: S. cerevisiae bub3 mutant strain, at 11.0 µM
About 79,000 compounds went through this panel and 15% of them were active in at least one assay; those are over-represented in the sample as a whole. Active and inactive are the calls of the source. Rule as the data show it: active = growth inhibition above about 70%; inactive = the rest.
Possible outcomes: active, inactive

| Molecule | Cat |
| --- | --- |
| COc1cc(/C=N/Nc2nnc3c4ccccc4c4ncccc4c3n2)cc(OC)c1OC | inactive |
| CC1OC(O[C@H]2/C=C/C=C/C=C/C=C/C=C/C=C/C=C/[C@H](C)[C@@H](O)[C@@H](C)[C@H](C)OC(=O)C[C@H](O)C[C@H](O)CC[C@@H](O)[C@H](O)C[C@H](O)C[C@]3(O)C[C@H](O)[C@@H](C(=O)O)[C@H](C2)O3)C(O)C(N)C1O (some centres undefined) | active |
| CC(C)(C)CC(C)(C)c1cc(O)c(O)c(CN2CCCCC2)c1 | inactive |
| Cc1c2cccc(Sc3ccccc3)c2c2c3c(cccc13)[S+](c1ccccc1)C2 (centres undefined) | active |
| CCN(CC)CCNc1ccc2ncn3c4cc(OC)c(OC)c(=O)c4c(O)c1c23 | inactive |
| COC(=O)Oc1cc(Cl)c(Cl)cc1Cl | inactive |
| O=C(/C=C(/c1ccccc1)N1CCCCC1)c1ccccc1 | inactive |
| CCC1(OC(=O)CN2CCN(CCO)CC2)C(=O)OCc2c1cc1n(c2=O)Cc2cc3ccccc3nc2-1 (centres undefined) | inactive |
| Cc1cc(C(C)(C)CC(C)(C)C)ccc1O | inactive |

====

assay: NCI Yeast Anticancer Drug Screen. Data for the mec2-1 strain (AID 157); settings: S. cerevisiae mec2-1 strain, at 5.0 µM (retest, dose inferred, filed as 0.5)
This is part of a sample that, as a whole, favours compounds with a hit. Of some 79,000 tested, about 15% had one in any assay. The source made the active and inactive calls. Rule as the data show it: active = growth inhibition above about 70%; inactive = the rest.
Possible outcomes: active, inactive

| Molecule | Cat |
| --- | --- |
| CC(=O)OC1CC2C(C)(C)C(=O)C=C[C@]2(C)C2CCC3(C)C(=CCC3[C@H](CO)C[C@H](O)C(=O)C(C)(C)O)[C@]12C (some centres not stated) | inactive |
| Cc1ccc2c3ccc4c(c3n(C)c2c1)C(=O)C=CC4=O | inactive |
| Nc1ccc(F)cc1S | inactive |
| Cc1ccc(NC(c2ccccc2)c2ccc3cccnc3c2O)cc1 (configuration not stated) | inactive |
| CCCC(=O)Oc1ccc(/C=N/NC(N)=S)nc1 | inactive |
| CCCCOCn1c(=O)[nH]c(=O)c2cc(Br)ccc21 | inactive |
| Cc1ccc(N=Nc2ccc(O)c(=O)cc2)cc1 | inactive |
| COc1ccc(/C=C/c2sc3ccccc3[n+]2CCCCI)cc1OC | inactive |
| CC(C)=NOC(=O)Nc1ccc(Cl)cc1 | active |
| C=C1CCC(O)C/C1=C/C=C1\CCCC2(C)C1CCC2C(C)CCCC(C)C (configuration not stated) | inactive |
| CC(=O)ON=C1C=CC(=C(C#N)c2ccc(Cl)cc2)C=C1 | inactive |
| CC(=O)Nc1ccc2c(c1)-c1ccccc1C2=O | inactive |

====

test: NCI Yeast Anticancer Drug Screen. Data for the mec2-1 strain (AID 157); conditions: S. cerevisiae mec2-1 strain, at 100.0 µM
This is part of a sample that, as a whole, favours compounds with a hit. Of some 79,000 tested, about 15% had one in any assay. The source made the active and inactive calls. Rule as the data show it: active = growth inhibition above about 70%; inactive = the rest.
Possible outcomes: yes (active), no (inactive)

| Molecule | Cat |
| --- | --- |
| COC(=O)CC1(O)C(/C=C/c2ccccc2)C(C(=O)OC)C(=O)C(C(=O)OC)C1C(=O)OC (centres undefined) | no |
| CC(C)CCCC(C)C1CCC2C3CCC4=CC(=O)/C(=C\O)CC4(C)C3CCC12C (centres undefined) | no |
| O=C1C=C(c2ccccc2)OC1(c1ccccc1)N1CCOCC1 (centres undefined) | yes |
| COc1ccc(N=CN(C)C)c(C)c1 | yes |
| CCOC(=O)COc1c(OC)cc(C2C3=C(COC3=O)Oc3cc4c(cc32)OCO4)cc1OC (centres undefined) | no |
| Nc1nc(N)c2nc(CNc3ccc(C(=O)NC(CCC(=O)O)C(=O)O)cc3F)cnc2n1 (centres undefined) | yes |
| Cc1nc2ccccc2nc1NNc1ccccc1 | no |
| CC(=O)Nc1ccc2c(c1)Cc1cc(N=C3C=CC(=O)O3)ccc1-2 | yes |
| CCc1ccc2c(c1)N(CC(C)CN(C)C)c1ccccc1S2 (centres undefined) | no |
